target: BRG-1 (Homo sapiens); experiment: ATPase catalytic activity assay (ADP-Glo), BRG-1
pIC50: −log10 of the molar value.
Property name: pIC50

Looking for the measured pIC50 of C[C@@]1(F)COCc2ccc(C(=O)NCc3cc4cc(-c5cccc(N6CCC6)n5)cnc4cn3)cc21 [Compound 347] , can you help?
6.30 to 7.00

Next record, please: C[C@@]1(C#N)COCc2ccc(C(=O)NCc3cc(N4CC5(CN(c6ccccc6)C5)C4)ccn3)cc21 [Compound 10]
< 6.00

Next record, please: COC1CN(c2cncc(-c3ccc4cnc(CNC(=O)c5ccc6c(c5)[C@](C)(C#N)COC6)cc4n3)n2)C1 [Compound 409]
6.30 to 7.00

Next record, please: COc1cccc([C@H]2C[C@@H](c3ccnc(CNC(=O)c4ccc5c(c4)[C@](C)(C#N)COC5)c3)C2)c1 [Compound 71]
< 6.00

Next record, please: C[C@@]1(C#N)COCc2ncc(C(=O)NCc3cc4nc(-c5cc(F)cc(N6CCC6)c5)ccc4cn3)cc21 [Compound 487]
6.30 to 7.00

Next record, please: COc1c(-c2ccc3cnc(CNC(=O)c4ccc5c(c4)[C@](C)(C#N)COC5)cc3n2)cnn1C(F)F [Compound 184]
6.00 to 6.30

Next record, please: C[C@@]1(C#N)COCc2ccc(C(=O)NCc3cc4nc(-c5ccnc(C(F)F)n5)ccc4cn3)cc21 [Compound 358]
6.00 to 6.30

Next record, please: C[C@@]1(C#N)COCc2ccc(C(=O)NCc3cc4cc(-c5cncc(C6CC6)n5)cnc4cn3)cc21 [Compound 342]
6.00 to 6.30

----------
target: BRG-1 (Homo sapiens, UniProt P51532); assay: ATPase catalytic activity assay (ADP-Glo), BRG-1; conditions: 1 h, read-out: BRG1 Max % Inhibition, ADP-Glo, 30 nM BRG-1, 400 μM ATP
Sequence (P51532 whole entry): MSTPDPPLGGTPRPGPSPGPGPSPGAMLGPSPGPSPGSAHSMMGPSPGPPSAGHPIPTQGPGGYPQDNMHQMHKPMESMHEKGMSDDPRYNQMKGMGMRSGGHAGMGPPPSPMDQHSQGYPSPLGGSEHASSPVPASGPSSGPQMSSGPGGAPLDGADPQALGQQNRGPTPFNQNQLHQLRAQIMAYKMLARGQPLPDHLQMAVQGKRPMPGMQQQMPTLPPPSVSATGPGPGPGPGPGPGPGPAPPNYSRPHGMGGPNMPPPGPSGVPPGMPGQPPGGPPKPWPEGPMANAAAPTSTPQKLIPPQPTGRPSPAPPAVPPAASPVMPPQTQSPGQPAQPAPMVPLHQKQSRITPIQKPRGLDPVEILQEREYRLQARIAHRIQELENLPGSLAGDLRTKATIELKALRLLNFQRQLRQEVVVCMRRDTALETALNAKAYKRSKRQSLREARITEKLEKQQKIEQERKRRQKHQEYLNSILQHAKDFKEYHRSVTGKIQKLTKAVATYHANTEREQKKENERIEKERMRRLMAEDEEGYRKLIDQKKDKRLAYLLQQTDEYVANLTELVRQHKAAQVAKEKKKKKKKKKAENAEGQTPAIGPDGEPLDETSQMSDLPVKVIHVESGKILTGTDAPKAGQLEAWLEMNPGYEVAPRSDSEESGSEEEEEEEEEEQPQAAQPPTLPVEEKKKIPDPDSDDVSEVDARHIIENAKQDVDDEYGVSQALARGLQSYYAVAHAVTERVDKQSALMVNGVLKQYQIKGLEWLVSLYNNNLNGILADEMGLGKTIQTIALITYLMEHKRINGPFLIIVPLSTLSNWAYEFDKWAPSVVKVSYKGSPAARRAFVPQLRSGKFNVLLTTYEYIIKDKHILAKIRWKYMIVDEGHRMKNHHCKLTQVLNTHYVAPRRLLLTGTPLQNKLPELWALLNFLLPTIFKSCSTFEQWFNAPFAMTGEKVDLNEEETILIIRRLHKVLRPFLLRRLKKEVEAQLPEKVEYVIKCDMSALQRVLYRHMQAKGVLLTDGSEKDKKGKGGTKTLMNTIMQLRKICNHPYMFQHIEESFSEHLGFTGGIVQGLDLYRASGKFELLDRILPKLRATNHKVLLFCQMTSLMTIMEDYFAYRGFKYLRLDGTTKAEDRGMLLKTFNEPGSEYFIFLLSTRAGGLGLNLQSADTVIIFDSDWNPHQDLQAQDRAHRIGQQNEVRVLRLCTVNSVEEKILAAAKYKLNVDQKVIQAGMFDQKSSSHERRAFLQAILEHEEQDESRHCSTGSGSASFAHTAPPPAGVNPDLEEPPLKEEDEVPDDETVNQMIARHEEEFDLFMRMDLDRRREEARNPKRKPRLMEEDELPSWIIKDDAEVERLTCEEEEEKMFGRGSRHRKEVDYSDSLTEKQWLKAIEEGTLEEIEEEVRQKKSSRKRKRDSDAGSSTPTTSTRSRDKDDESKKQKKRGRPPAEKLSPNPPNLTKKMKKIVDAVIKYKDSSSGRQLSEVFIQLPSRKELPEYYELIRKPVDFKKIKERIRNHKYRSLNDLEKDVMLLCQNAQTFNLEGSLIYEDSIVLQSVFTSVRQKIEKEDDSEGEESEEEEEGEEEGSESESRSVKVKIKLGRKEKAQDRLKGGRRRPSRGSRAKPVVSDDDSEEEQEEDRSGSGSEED
Property name: Emax (%)

// known answers, use as guide
Compound: C[C@@]1(F)COCc2ccc(C(=O)NCc3cc4nc(-c5ccnc(N6CCC6)n5)ccc4cn3)cc21
Emax / %: 93
--
Compound: COc1cc(N2CCC2)ccc1-c1ccc2cnc(CNC(=O)c3ccc4c(c3)[C@](C)(C#N)COC4)cc2n1
Emax / %: 80

(1) C[C@@]1(C#N)COCc2ccc(C(=O)NCc3cc4nc(-c5ccnc(C6CCOCC6)n5)ccc4cn3)cc21
(2) C[C@@]1(F)COCc2ccc(C(=O)NCc3cc4nc(-c5ccnc(N6CC[C@H]7COC[C@@H]7C6)n5)ccc4cn3)cc21
(3) C[C@@]1(C#N)COCc2ccc(C(=O)NCc3cc4nc(-c5ccccn5)sc4cn3)cc21
Number of compounds to sort: 3. Sort criterion: Emax, ascending. # respond with the labels, arranged in the requested order
3, 1, 2

----------
target: BRM (Homo sapiens, UniProt P51531); test: ATPase catalytic activity assay (ADP-Glo), BRM; conditions: 30 nM BRM, 400 μM ATP
Sequence (P51531 whole entry): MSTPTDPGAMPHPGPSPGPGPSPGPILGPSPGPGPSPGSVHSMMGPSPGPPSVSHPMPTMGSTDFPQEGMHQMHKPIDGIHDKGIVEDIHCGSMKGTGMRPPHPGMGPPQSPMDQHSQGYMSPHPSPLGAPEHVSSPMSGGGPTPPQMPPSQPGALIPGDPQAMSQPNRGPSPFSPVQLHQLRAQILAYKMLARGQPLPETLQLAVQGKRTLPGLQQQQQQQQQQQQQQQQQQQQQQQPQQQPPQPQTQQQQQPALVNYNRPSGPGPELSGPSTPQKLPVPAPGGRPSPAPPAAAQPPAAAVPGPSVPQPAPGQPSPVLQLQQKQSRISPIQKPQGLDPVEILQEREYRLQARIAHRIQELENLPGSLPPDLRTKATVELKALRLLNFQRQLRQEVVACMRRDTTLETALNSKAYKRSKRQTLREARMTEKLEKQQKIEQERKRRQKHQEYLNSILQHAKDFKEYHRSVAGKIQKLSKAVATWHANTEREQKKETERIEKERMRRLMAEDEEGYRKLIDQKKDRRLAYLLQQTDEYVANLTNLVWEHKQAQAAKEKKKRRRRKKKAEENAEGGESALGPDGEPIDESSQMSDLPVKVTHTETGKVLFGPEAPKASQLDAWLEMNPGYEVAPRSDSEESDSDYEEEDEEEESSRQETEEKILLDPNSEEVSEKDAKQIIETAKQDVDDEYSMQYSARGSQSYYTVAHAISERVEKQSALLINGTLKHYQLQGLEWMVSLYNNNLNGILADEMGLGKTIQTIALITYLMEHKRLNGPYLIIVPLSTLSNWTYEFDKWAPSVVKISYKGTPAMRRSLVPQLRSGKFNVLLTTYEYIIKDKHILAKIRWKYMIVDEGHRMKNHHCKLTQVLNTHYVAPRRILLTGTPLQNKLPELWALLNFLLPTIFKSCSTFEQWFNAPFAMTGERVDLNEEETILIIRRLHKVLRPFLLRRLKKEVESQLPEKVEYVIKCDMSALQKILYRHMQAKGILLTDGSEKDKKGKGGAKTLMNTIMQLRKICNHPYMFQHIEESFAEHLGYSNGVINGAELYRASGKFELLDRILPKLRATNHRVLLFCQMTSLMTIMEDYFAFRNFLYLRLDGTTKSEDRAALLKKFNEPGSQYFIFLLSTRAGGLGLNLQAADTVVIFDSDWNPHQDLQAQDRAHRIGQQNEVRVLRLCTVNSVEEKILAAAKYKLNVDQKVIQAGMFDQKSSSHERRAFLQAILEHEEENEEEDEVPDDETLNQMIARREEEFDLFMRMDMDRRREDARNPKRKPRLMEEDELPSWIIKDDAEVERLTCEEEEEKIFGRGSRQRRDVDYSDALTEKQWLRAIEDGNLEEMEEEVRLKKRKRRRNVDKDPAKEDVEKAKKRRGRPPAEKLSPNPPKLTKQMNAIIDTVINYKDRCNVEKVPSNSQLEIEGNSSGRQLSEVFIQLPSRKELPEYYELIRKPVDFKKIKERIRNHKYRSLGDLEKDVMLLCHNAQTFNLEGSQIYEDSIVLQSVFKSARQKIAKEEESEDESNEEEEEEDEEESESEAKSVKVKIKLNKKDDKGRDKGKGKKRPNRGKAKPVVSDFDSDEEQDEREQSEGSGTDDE
Property name: BRM Max % Inhibition (%)

Record smiles: O=C(NCc1cc2nc(-c3cncc(C4CC4)n3)ccc2cn1)c1cnc2c(c1)[C@@](F)(C(F)F)COC2
Test result: 100

Record smiles: C[C@@]1(C#N)COCc2ccc(C(=O)NCc3cc4nc(N5CCn6nccc6C5)ccc4cn3)cc21
Test result: 95

Record smiles: C[C@@]1(C#N)COc2ccc(C(=O)NCc3cc4nc(-c5ccccc5)sc4cn3)cc21
Test result: 74

Record smiles: C[C@@]1(F)COCc2ccc(C(=O)NCc3cc4nc(-c5cccc(C6(O)CC6)n5)ccc4cn3)cc21
Test result: 104

Where do these numbers come from? They come from patent US12441726B2.
